Target: T1, monkey TIM-3 on CHOK1 stable cell line (CHOK1-cTIM-3) (monkey)
T1 chain: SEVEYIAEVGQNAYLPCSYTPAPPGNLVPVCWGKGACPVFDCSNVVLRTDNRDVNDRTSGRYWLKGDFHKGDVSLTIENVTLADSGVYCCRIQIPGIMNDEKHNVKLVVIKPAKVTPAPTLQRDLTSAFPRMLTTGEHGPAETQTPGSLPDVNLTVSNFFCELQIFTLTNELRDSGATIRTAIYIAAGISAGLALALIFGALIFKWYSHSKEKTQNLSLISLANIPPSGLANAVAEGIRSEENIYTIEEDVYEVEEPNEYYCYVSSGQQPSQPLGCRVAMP
Assay: FACS, CHOK1-cTIM-3 cells, 1.6 nM antibody
Measurement Kind: Mean fluorescence intensity
Write the number on its own, no unit after it.

Worked examples, 2 binders total:
134H3G6 fully human TIM-3 antibody (human IgG4, kappa) (antibody, V domains shown) VH: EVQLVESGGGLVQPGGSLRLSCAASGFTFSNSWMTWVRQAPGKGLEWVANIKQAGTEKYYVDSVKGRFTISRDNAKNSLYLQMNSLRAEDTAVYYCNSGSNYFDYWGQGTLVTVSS VL: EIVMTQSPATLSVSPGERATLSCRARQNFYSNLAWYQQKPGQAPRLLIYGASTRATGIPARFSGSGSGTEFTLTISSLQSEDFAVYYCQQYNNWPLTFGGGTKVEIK: 326
18D2H2 fully human TIM-3 antibody (human IgG4, kappa) (antibody, V domains shown) VH: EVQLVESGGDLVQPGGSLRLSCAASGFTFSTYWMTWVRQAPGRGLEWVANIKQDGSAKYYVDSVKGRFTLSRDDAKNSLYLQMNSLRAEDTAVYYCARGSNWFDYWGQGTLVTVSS VL: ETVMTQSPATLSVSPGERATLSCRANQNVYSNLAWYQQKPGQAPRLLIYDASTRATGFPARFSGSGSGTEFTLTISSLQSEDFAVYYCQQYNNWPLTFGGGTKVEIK: 333

Return reported Mean fluorescence intensity; argument: 57F4E5 fully human TIM-3 antibody (human IgG4, kappa) (antibody, V domains shown) VH: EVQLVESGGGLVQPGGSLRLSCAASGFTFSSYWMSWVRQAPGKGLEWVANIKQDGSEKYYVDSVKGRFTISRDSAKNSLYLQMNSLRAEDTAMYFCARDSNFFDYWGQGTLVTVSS VL: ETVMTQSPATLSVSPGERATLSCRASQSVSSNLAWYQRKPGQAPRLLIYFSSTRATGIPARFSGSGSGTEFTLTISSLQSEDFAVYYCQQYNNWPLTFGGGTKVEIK
207
